Conditions: in isobutanol, 323.16 K

molecule	solubility (mole fraction)
c1ccc(-c2ccc(C(c3ccccc3)n3ccnc3)cc2)cc1 (stereo unspecified)	0.0256

---

Details: in n-propyl acetate, 313.11 K
observed-property: solubility (mole fraction)

molecule	numeric-value
c1ccc(-c2ccc(C(c3ccccc3)n3ccnc3)cc2)cc1 (stereo unspecified)	0.0087

---

Conditions: in ethyl acetate, 288.14 K

compound	solubility (mole fraction)
c1ccc(-c2ccc(C(c3ccccc3)n3ccnc3)cc2)cc1 (stereo unspecified)	0.00305

---

Details: in n-butanol, 323.14 K

compound	solubility (mole fraction)
c1ccc(-c2ccc(C(c3ccccc3)n3ccnc3)cc2)cc1 (stereo unspecified)	0.0257

---

Details: in ethyl acetate, 323.1 K
observed-property: solubility (mole fraction)

molecule	numeric-value
c1ccc(-c2ccc(C(c3ccccc3)n3ccnc3)cc2)cc1 (stereo unspecified)	0.0139

---

Details: in acetonitrile, 313.16 K

compound	solubility (mole fraction)
c1ccc(-c2ccc(C(c3ccccc3)n3ccnc3)cc2)cc1 (stereo unspecified)	0.00439

---

Details: in methyl acetate, 288.14 K
observed-property: solubility (mole fraction)

compound	observed-property	numeric-value
c1ccc(-c2ccc(C(c3ccccc3)n3ccnc3)cc2)cc1 (stereo unspecified)	solubility (mole fraction)	0.00334

---

Conditions: in DMF, 303.14 K

compound	solubility (mole fraction)
c1ccc(-c2ccc(C(c3ccccc3)n3ccnc3)cc2)cc1 (stereo unspecified)	0.029

---

Conditions: in sec-butanol, 288.16 K
observed-property: solubility (mole fraction)

compound	observed-property	result
c1ccc(-c2ccc(C(c3ccccc3)n3ccnc3)cc2)cc1 (stereo unspecified)	solubility (mole fraction)	0.00286

---

Settings: in isopropanol, 308.13 K
observed-property: solubility (mole fraction)

molecule	numeric-value
c1ccc(-c2ccc(C(c3ccccc3)n3ccnc3)cc2)cc1 (stereo unspecified)	0.00472

---

Settings: in n-butanol, 303.15 K

compound	solubility (mole fraction)
c1ccc(-c2ccc(C(c3ccccc3)n3ccnc3)cc2)cc1 (stereo unspecified)	0.01

---

Conditions: in sec-butanol, 318.16 K

molecule	solubility (mole fraction)
c1ccc(-c2ccc(C(c3ccccc3)n3ccnc3)cc2)cc1 (stereo unspecified)	0.0145

---

Conditions: in DMF, 313.25 K

compound	solubility (mole fraction)
c1ccc(-c2ccc(C(c3ccccc3)n3ccnc3)cc2)cc1 (stereo unspecified)	0.0403

---

Conditions: in n-butyl acetate, 298.19 K

compound	solubility (mole fraction)
c1ccc(-c2ccc(C(c3ccccc3)n3ccnc3)cc2)cc1 (stereo unspecified)	0.00345

---

Conditions: in n-propanol, 288.14 K

molecule	solubility (mole fraction)
c1ccc(-c2ccc(C(c3ccccc3)n3ccnc3)cc2)cc1 (stereo unspecified)	0.00458

---

Settings: in ethyl acetate, 298.13 K

compound	solubility (mole fraction)
c1ccc(-c2ccc(C(c3ccccc3)n3ccnc3)cc2)cc1 (stereo unspecified)	0.00471

---

Settings: in acetonitrile, 308.13 K
observed-property: solubility (mole fraction)

molecule	numeric-value
c1ccc(-c2ccc(C(c3ccccc3)n3ccnc3)cc2)cc1 (stereo unspecified)	0.00347

---

Conditions: in n-butyl acetate, 318.13 K

compound	solubility (mole fraction)
c1ccc(-c2ccc(C(c3ccccc3)n3ccnc3)cc2)cc1 (stereo unspecified)	0.00835

---

Settings: in n-propanol, 318.19 K

molecule	solubility (mole fraction)
c1ccc(-c2ccc(C(c3ccccc3)n3ccnc3)cc2)cc1 (stereo unspecified)	0.0172

---

Settings: in ethanol, 323.14 K

compound	solubility (mole fraction)
c1ccc(-c2ccc(C(c3ccccc3)n3ccnc3)cc2)cc1 (stereo unspecified)	0.0151
